- STUDY_TARGET: T1, recombinant human IgE (human, UniProt P01854-1 1-428)
- T1 construct: made in-house (ALK); preloaded on immobilised FcεRIα in the displacement ELISA
- T1 sequence (P01854 other isoform, or with tags, fused parts or gaps): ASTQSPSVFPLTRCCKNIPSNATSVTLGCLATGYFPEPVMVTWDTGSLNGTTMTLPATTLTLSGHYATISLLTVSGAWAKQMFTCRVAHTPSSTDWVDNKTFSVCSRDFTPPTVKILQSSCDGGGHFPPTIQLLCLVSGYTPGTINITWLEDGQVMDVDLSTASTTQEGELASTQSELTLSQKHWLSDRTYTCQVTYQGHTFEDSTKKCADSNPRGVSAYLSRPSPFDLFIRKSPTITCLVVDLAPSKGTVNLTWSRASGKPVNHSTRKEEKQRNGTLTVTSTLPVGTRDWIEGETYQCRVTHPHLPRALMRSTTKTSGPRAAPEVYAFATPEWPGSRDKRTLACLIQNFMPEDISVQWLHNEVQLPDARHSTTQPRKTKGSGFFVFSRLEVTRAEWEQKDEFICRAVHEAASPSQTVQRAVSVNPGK
- ASSAY_NAME: IgE-FcεRIα displacement ELISA
- Protocol: The displacement effect was tested using IgE-FcεRIα displacement ELISA assay. […] The ability of the various sdAbs to displace IgE from the receptor (FcεRIα) was evaluated by use of the ELISA based IgE-FcεRIα displacement assay. The percent displacement effect was calculated as the relative reduction in signal compared to the control with no sdAb added. The EC₅₀ values and the maximal effects were determined (table 15).
The following binders are shown together with reported pEC50 values.
Keep in mind that pEC50 stands for -log10 of concentration in molar terms.

Examples with their reported pEC50 follow.
1. A1A1(G4S)4 (VHH, monospecific, bivalent control of two A1 linked by (G4S)4) EVQLLESGGGLVQPGGSLRLSCAASGFTFGNYDMAWVRQAPGKRPEWVSSIDTGGDITHYADSVKGRFTISRDNAKNTLYLQMNSLRPEDTAVYWCATDEEYALGPNEFDYYGQGTLVTVSGGGGSGGGGSGGGGSGGGGSEVQLLESGGGLVQPGGSLRLSCAASGFTFGNYDMAWVRQAPGKRPEWVSSIDTGGDITHYADSVKGRFTISRDNAKNTLYLQMNSLRPEDTAVYWCATDEEYALGPNEFDYYGQGTLVTVS: 6.60
2. B1A1(G4S)2 (bispecific antibody) QVQLQESGGGLVQTGGSLRLSCAVHGRTFSNTGMGWFRQAPGNERQFVAIISPSGTSTYYADSVKGRFTISRDPAKNTVYLQMNSLKMDDTAVYYCAASYGSNWSTLRHQRRNEYDAWGQGTQVAVSGGGGSGGGGSEVQLLESGGGLVQPGGSLRLSCAASGFTFGNYDMAWVRQAPGKRPEWVSSIDTGGDITHYADSVKGRFTISRDNAKNTLYLQMNSLRPEDTAVYWCATDEEYALGPNEFDYYGQGTLVTVSS: 8.00

Now let's try a different one.
## Task Consider the binder D2A1(G4S)4 (bispecific antibody) DVQLQESGGGLVEAGGSLRLSCVASGRTFSGWSMGWFRQAPGKEREFVAAISWVGSWIGGTVYSNSVKGRFTISRDNARTTVYLQMNSLKPEDTAVYFCAAANSETPRIFASEYDYWGQGTQVTVSGGGGSGGGGSGGGGSGGGGSEVQLLESGGGLVQPGGSLRLSCAASGFTFGNYDMAWVRQAPGKRPEWVSSIDTGGDITHYADSVKGRFTISRDNAKNTLYLQMNSLRPEDTAVYWCATDEEYALGPNEFDYYGQGTLVTVS and give its measured pEC50.
## Result 8.10
